assay: Volume of distribution at steady state in C57BL/6J mouse at 20 mg/kg, iv measured up to 24 hrs by LC-MS/MS analysis; format: ADME, organism-based; conditions: in vivo, read-out: Vdss
REPORTED METRIC: Vd (L/kg)
Report only the number, with the unit L/kg understood.

Note to self: Vd recorded for c1ccc2c(c1)[nH]c1c(-c3c[nH]cn3)nccc12 was 4.35

---

molecular target: Indoleamine 2,3-dioxygenase 1 (Homo sapiens, UniProt P14902); assay: Inhibition of IDO1 (unknown origin) assessed as reduction in kynurenine production using L-tryptophan as substrate at 50 uM incubated for 1 hr by absorbance based microplate reader analysis relative to control
Sequence (P14902 whole entry, looked up): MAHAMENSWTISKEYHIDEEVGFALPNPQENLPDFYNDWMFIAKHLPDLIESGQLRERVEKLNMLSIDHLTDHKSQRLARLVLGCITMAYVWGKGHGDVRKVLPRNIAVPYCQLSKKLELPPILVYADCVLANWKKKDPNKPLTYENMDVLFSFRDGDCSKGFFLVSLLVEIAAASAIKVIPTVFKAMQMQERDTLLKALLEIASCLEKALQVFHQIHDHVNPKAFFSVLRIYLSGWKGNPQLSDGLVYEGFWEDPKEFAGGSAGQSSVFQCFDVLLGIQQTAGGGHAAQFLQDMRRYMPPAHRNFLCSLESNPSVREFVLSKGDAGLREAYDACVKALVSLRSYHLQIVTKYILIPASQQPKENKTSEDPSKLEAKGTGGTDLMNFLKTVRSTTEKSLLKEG
Recorded inhibition values for a group of compounds are listed next.
Give the value in % but do not write % after it.

Some solved cases for reference:
>>> assay_value("Fc1cc(-c2nccc3c2[nH]c2ccccc23)ccc1Br")
71
>>> assay_value("O=C1CC(c2c[nH]c3ccc(F)cc23)C(=O)N1 (centres undefined)")
92
>>> assay_value("FC(F)(F)c1cccc(-c2nccc3c2[nH]c2ccccc23)c1")
9

Now take the following compound into account.
c1ccc2c(c1)[nH]c1c(-c3ccncc3)nccc12 yielded inhibition of 46

---

Tryptophan 2,3-dioxygenase (Homo sapiens, UniProt P48775) measurements of IC50, listed per entry.
Sequence (P48775 whole entry): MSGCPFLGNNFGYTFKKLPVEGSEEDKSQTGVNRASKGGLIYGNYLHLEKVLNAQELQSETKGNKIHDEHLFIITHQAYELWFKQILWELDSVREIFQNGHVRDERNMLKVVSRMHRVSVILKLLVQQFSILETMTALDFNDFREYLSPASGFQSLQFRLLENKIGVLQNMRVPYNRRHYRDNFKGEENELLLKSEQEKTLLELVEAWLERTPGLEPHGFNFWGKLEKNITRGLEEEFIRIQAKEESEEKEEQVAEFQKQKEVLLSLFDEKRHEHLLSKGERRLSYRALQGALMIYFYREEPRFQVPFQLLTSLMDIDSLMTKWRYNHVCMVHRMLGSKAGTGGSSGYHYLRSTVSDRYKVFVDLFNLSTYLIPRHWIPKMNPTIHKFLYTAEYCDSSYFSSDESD
Use µM as the unit, but write only the number.

// IC50 value for c1csc(-c2nccc3c2[nH]c2ccccc23)c1 : 10.8

Query Cc1nccc2c1[nH]c1ccccc12 [HARMAN] yields IC50 of 6.31

Form field IC50, entry Brc1cccc(-c2nccc3c2[nH]c2ccccc23)c1 : 20.3

// sample c1ccc2c(c1)[nH]c1c(-c3cnn[nH]3)nccc12 , its IC50 was 19.5

---

test: Half life in C57BL/6J mouse at 20 mg/kg, ip measured up to 24 hrs by LC-MS/MS analysis; type: ADME, organism-based; settings: in vivo
REPORTED METRIC: half-life
Note: a bare number is incomplete; add the unit.

The recorded half-life for c1ccc2c(c1)[nH]c1c(-c3c[nH]cn3)nccc12 is 46.2 min

---

experiment: Bioavailability in C57BL/6J mouse at 20 mg/kg, […] measured up to 24 hrs by LC-MS/MS analysis; assay type: ADME, organism-based; conditions: in vivo
REPORTED METRIC: bioavailability (%)
The figure you give is taken to be in %; do not add the unit.

Entry c1ccc2c(c1)[nH]c1c(-c3c[nH]cn3)nccc12 ; bioavailability = 52.5

---

assay: Tmax in C57BL/6J mouse at 20 mg/kg, iv measured up to 24 hrs by LC-MS/MS analysis; type: ADME, organism-based; details: in vivo
REPORTED METRIC: Tmax (min)
Unit min implied. Number only.

# Tmax (compound: c1ccc2c(c1)[nH]c1c(-c3c[nH]cn3)nccc12 ) is 15

---

biological target: Indoleamine 2,3-dioxygenase 1 (Homo sapiens, UniProt P14902); assay: Inhibition of IDO1 (unknown origin) assessed as reduction in kynurenine production using L-tryptophan as substrate at 50 uM incubated for 1 hr by absorbance based microplate reader analysis relative to control
The following ranges of inhibition define the classes used here: 0 (below 30%), 1 (30% to below 60%), 2 (60% or more)

>>> assigned_category("Clc1cc(Cl)cc(-c2nccc3c2[nH]c2ccccc23)c1")
2
>>> assigned_category("c1ccc2c(c1)[nH]c1c(-c3nccs3)nccc12")
0

Lab note: sort c1ccc2c(c1)[nH]c1c(-c3cscn3)nccc12 into the matching inhibition band.
0

Given c1ccc2c(c1)[nH]c1c(-c3c[nH]cn3)nccc12 , name the class its inhibition places it in.
2
